Test system: MDA-MB-231
Test: Induction of apoptosis in human MDA-MB-231 cells assessed as necrotic cells after 72 hrs by Annexin-V/FITC staining based flow cytometry (reference value: 1.14%)
Format: functional
Here the recorded Activity is given for each entry.
Field: numeric (%). Do not append units.

smiles	Activity, %
C[C@]12CC[C@H]3[C@@H](C[C@@H]4O[C@@]45C[C@@H](O)CC[C@]35C)[C@@H]1CC[C@@]2(O)Cc1cccc[n+]1[O-]	21.58
C[C@]12CCC=CC1=CC[C@@H]1[C@@H]2CC[C@@]2(C)[C@H]1CC[C@@]2(O)Cc1ccccn1	8.81

Field: next molecule
// query Please give the measured Activity for this molecule: C[C@]12CC[C@H](O)C=C1CC[C@@H]1[C@@H]2CC[C@]2(C)/C(=C/c3ccccn3)CC[C@@H]12
// result 16.1

---

Test system: MDA-MB-231
Test: Cell cycle arrest in human MDA-MB-231 cells assessed as accumulation at G2/M phase at IC50 concentration after 72 hrs by flow cytometry (reference value: 10.4%)
Assay type: functional
metric-name: Activity (%)
Field: numeric (%). Do not append units.

// query Request - read-out Activity | tested on MDA-MB-231 | compound C[C@]12CC[C@H](O)C=C1CC[C@@H]1[C@@H]2CC[C@@]2(C)[C@H]1CC[C@@]2(O)Cc1ccccn1
// result 11.9

// query Also, C[C@]12CCC(=O)C(O)=C1C=C[C@@H]1[C@@H]2CC[C@@]2(C)[C@H]1CC[C@@]2(O)Cc1ccccn1 please.
// result 11.9

// query Also, C[C@]12CC[C@H](O)[C@H](O)C1=CC[C@@H]1[C@@H]2CC[C@@]2(C)[C@H]1CC[C@@]2(O)Cc1ccccn1 please.
// result 11.9

---

Here the recorded Activity is given for each entry.
Tested on: MDA-MB-231
Assay: Cell cycle arrest in human MDA-MB-231 cells assessed as accumulation at S phase at IC50 concentration after 48 hrs by flow cytometry (reference value: 38.8%)
Format: functional
Field: numeric (%). Do not append units.

Worked examples, 4 compounds total:
smiles	units	Activity
C[C@]12CCC=CC1=CC[C@@H]1[C@@H]2CC[C@]2(C)/C(=C/c3ccccn3)CC[C@@H]12	%	39.7
C[C@]12CCC(=O)C(O)=C1C=C[C@@H]1[C@@H]2CC[C@@]2(C)[C@H]1CC[C@@]2(O)Cc1ccccn1	%	32.2
COC1=C2CC[C@@H]3[C@H](CC[C@]4(C)/C(=C/c5ccccn5)CC[C@@H]34)[C@@]2(C)CCC1=O	%	28.1
C[C@]12CC[C@H](O)[C@@H](O)C1=CC[C@@H]1[C@@H]2CC[C@@]2(C)[C@H]1CC[C@@]2(O)Cc1ccccn1	%	34.2

// query Please give the measured Activity for this compound: C[C@]12CC[C@H](O)C=C1CC[C@@H]1[C@@H]2CC[C@@]2(C)[C@H]1CC[C@@]2(O)Cc1ccccn1
// result 42.4

// query Also, C[C@]12CCC=CC1=CC[C@@H]1[C@@H]2CC[C@@]2(C)[C@H]1CC[C@@]2(O)Cc1ccccn1 please.
// result 38.1

---

Test system: MDA-MB-231
Test: Induction of apoptosis in human MDA-MB-231 cells assessed as necrotic cells after 48 hrs by Annexin-V/FITC staining based flow cytometry (reference value: 1.29%)
Assay type: functional
metric-name: Activity (%)
Field: numeric (%). Do not append units.

smiles	Activity (%)
C[C@]12CCC=CC1=CC[C@@H]1[C@@H]2CC[C@]2(C)/C(=C/c3ccccn3)CC[C@@H]12	8.08

// query Please give the measured Activity for this compound: C[C@]12CCC(=O)C(O)=C1C=C[C@@H]1[C@@H]2CC[C@@]2(C)[C@H]1CC[C@@]2(O)Cc1ccccn1
// result 13.15

// query Also, C[C@]12CC[C@H]3[C@@H](C[C@@H]4O[C@@]45C[C@@H](O)CC[C@]35C)[C@@H]1CC[C@@]2(O)Cc1cccc[n+]1[O-] please.
// result 7.37
